These entries and their values trace back to ChEMBL document CHEMBL1955725.

Target protein (sequence): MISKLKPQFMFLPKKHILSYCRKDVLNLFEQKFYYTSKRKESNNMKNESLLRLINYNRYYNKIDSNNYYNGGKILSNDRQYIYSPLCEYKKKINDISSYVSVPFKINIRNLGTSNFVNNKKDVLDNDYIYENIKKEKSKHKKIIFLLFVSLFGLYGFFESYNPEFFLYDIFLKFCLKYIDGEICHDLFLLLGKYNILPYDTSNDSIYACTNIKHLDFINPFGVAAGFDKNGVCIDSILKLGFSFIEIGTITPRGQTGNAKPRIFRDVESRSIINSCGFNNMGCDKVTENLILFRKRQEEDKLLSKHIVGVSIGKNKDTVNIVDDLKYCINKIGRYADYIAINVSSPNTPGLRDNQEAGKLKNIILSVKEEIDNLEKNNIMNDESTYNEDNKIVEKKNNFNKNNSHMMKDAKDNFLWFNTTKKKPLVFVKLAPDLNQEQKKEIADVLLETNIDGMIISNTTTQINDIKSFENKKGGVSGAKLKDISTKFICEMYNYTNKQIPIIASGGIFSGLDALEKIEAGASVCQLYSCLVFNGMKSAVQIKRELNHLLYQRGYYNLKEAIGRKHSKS
Overview of reported IC50 across a group of molecules:

[
  {
    "input.smiles": "COCCOc1nc2nc(C)cc(Nc3cccc(Cl)c3)n2n1",
    "censoring.sign": "=",
    "IC50 [µM]": 4.9
  },
  {
    "input.smiles": "CCC(F)(F)c1nc2nc(C)cc(Nc3cccc(Cl)c3)n2n1",
    "censoring.sign": "=",
    "IC50 [µM]": 0.03
  },
  {
    "input.smiles": "Cc1cc(Nc2cccc(Cl)c2)n2nc(CC(C)C)nc2n1",
    "censoring.sign": ">",
    "IC50 [µM]": 10
  },
  {
    "input.smiles": "CNCc1nc2nc(C)cc(Nc3cccc(Cl)c3)n2n1",
    "censoring.sign": ">",
    "IC50 [µM]": 10
  },
  {
    "input.smiles": "CNCc1nc2nc(C)cc(Nc3ccc(Cl)cc3)n2n1",
    "censoring.sign": ">",
    "IC50 [µM]": 10
  },
  {
    "input.smiles": "COCCc1nc2nc(C)cc(Nc3ccc(C(F)(F)F)cc3)n2n1",
    "censoring.sign": "=",
    "IC50 [µM]": 2.5
  }
]
